Reference source: PubChem BioAssay (NCI)

growth values for the molecules below.
tested on: UACC-62 melanoma; experiment: NCI-60 one-dose screen, 48 h (100 = growth as untreated, 0 = no growth, -100 = all killed); conditions: 10 µM unless noted
About 83,000 compounds went through this panel and 20% of them were active in at least one assay; those are over-represented in the sample as a whole.

molecule: CCN(CC)CCCC(C)N/C(c1cccc(OC)c1)=c1\c(=O)[nH]n(-c2c3ccccc3nc3ccccc23)c(=O)\c1=C(/NC(C)CCCN(CC)CC)c1cccc(OC)c1 (stereo not given)
growth / %: -77.9
//
molecule: c1ccc2c(Cc3csc4ccccc34)csc2c1
growth / %: 86.4
//
molecule: FC(F)(F)c1ccc(/C=N/Nc2nnc3n2N=C(c2ccc(Cl)cc2)CS3)cc1
growth / %: 55.1
//
molecule: COc1ccc(Br)c2ccccc12
growth / %: 107
//
molecule: Nc1ccc(C(OC(=O)c2cc3ccccc3c(Cc3c(O)c(C(=O)OC(c4ccc(N)cc4)(c4ccc(N)cc4)c4ccc(N)cc4)cc4ccccc34)c2O)(c2ccc(N)cc2)c2ccc(N)cc2)cc1
growth / %: 10.7
//
molecule: CCOc1cccc(/C=N/NC(=O)c2ccc(Nc3ccnc(C(F)(F)F)c3)cc2)c1O
growth / %: -6.19
//
molecule: COc1ccc(C2C=C(c3ccc(Cl)cc3)N=C3SC=CN32)cc1 (stereo not given)
growth / %: 116
//
molecule: O=C(Nc1ccccc1)C(CCCCN1C(=O)c2ccccc2C1=O)N1C(=O)c2ccccc2C1=O (stereo not given)
growth / %: 98.9
//
molecule: CC(COC(=O)c1ccccc1)N1CC2CCC(C1)O2 (stereo not given)
growth / %: 100
//
molecule: CCN1CCN(Cc2ccc(NC(=O)c3nc4ccc5[nH]ncc5c4c4c3CCCC4)cc2C(F)(F)F)CC1
growth / %: -68.7

====

system: SN12C renal; assay: NCI-60 one-dose screen, 48 h (100 = growth as untreated, 0 = no growth, -100 = all killed); details: 10 µM unless noted
About 83,000 compounds went through this panel and 20% of them were active in at least one assay; those are over-represented in the sample as a whole.
Binary label based on growth with cut-off 80%: below gives condition met, not below gives condition not met.

compound: COC(=O)/C=C/c1cc(OC(C)=O)c2c(c1)[C@@H](C(=O)OC)[C@H](c1ccc(OC(C)=O)c(OC(C)=O)c1)O2
class_name: condition met
--
compound: COc1ccc(-c2nnc(SCC(=O)Nc3ccc(C(=O)/C=C/c4ccc(Cl)cc4)cc3)n2-c2ccccc2)cc1
class_name: condition not met
--
compound: NS(=O)(=O)c1ccc(N2N=C(c3cccs3)CC2c2ccccc2O)cc1 (centres undefined)
class_name: condition met
--
compound: Nc1ccc(C(OC(=O)c2cc3ccccc3c(Cc3c(O)c(C(=O)OC(c4ccc(N)cc4)(c4ccc(N)cc4)c4ccc(N)cc4)cc4ccccc34)c2O)(c2ccc(N)cc2)c2ccc(N)cc2)cc1
class_name: condition met
--
compound: O=C(O)/C=C(\c1nc2ccc([N+](=O)[O-])cc2[nH]1)c1cc(Cl)ccc1O
class_name: condition met
--
compound: COc1ccc2cc(-c3nc(C)c(C(C)=O)c(-c4ccc(C)cc4)n3)ccc2c1
class_name: condition not met
--
compound: Cc1cccc(C(=O)O)n1
class_name: condition not met
--
compound: CNC(=O)c1ccccc1Sc1ccc2c(/C=C/c3ccccn3)n[nH]c2c1
class_name: condition met
--
compound: Cc1ccc(-c2cnc3sc4ccc(Cl)cc4n23)cc1
class_name: condition not met
--
compound: COc1cc(C2=NOC(c3cc(OC)c(OC)c(OC)c3)C2)ccc1OCCCCOc1cc2c(cc1OC)C(=O)N1CCC[C@H]1C=N2 (some centres undefined)
class_name: condition met
--
compound: CCCCCCCCCCCC1=NC(C)(C)CN1C(C)(C)CO
class_name: condition met
--
compound: CC1(C)CC[C@]2(C(=O)N3CCNCC3)CC[C@]3(C)C(=CC[C@@H]4[C@@]5(C)CCC(=O)C(C)(C)[C@@H]5CC[C@]43C)[C@@H]2C1
class_name: condition not met
--
compound: Cc1ccc(N2C3c4ccccc4N(S(=O)(=O)c4ccc(C)cc4)C2c2ccccc2N3S(=O)(=O)c2ccc(C)cc2)cc1
class_name: condition not met
--
compound: Cc1cc(C)c2c(n1)sc1c(Nc3ccc(O)cc3)ncnc12
class_name: condition met
--
compound: CCOc1c(C#N)c2c(N)ncnc2n1C1OC(CO)C(O)C1O (centres undefined)
class_name: condition met
--
compound: COc1cc(C(=O)/C=C/c2cn(-c3ccccc3)nc2-c2cccc(Nc3ccnc4cc(Cl)ccc34)c2)cc(OC)c1OC
class_name: condition not met
--
compound: Nc1nc(N)c2c(n1)NC(c1sc(Cl)nc1Cl)CC(c1ccccc1)=N2 (centres undefined)
class_name: condition met
--
compound: CCCCN(CCCC)CCC(=O)c1ccc(OC)c2ccccc12
class_name: condition not met

====

tested on: UACC-257 melanoma; test: NCI-60 one-dose screen, 48 h (100 = growth as untreated, 0 = no growth, -100 = all killed); conditions: 10 µM unless noted
This is part of a sample that, as a whole, favours compounds with a hit. Of some 83,000 tested, about 20% had one in any assay.

compound: Cc1ccc(N2C3c4ccccc4N(S(=O)(=O)c4ccc(C)cc4)C2c2ccccc2N3S(=O)(=O)c2ccc(C)cc2)cc1
growth (%): 102
//
compound: Oc1ccc(Cl)cc1-c1cc(-c2ccccc2Cl)[nH]n1
growth (%): 81.8
//
compound: CCNC(=S)N(Cc1ccccc1)Cc1ccccc1
growth (%): 98.7
//
compound: COc1ccc(/C(=C\c2cc(OC)c(OC)c(OC)c2)C(=O)N2CCCNCC2)cc1
growth (%): 102
//
compound: O=C(O)C1[S][Sb]([CH](C(=O)O)[CH](C(=O)O)[Sb]2[S]C(C(=O)O)C(C(=O)O)[S]2)[S]C1C(=O)O (stereo not given)
growth (%): 89.3
//
compound: Clc1cn2cc(-c3ccc(Cl)c(Cl)c3Cl)nc2s1
growth (%): 112
//
compound: CCN(CC)CCC(CNc1ccnc2cc(Cl)ccc12)c1ccc(O)cc1 (stereo not given)
growth (%): 93.4
//
compound: CCN(CC)c1ccc(C(=N)c2ccc(N(C)C)cc2)cc1
growth (%): -3.29
//
compound: CCCOC(=O)C1c2cc3c(cc2CC(C)C1C(=O)OCCC)OCO3 (stereo not given)
growth (%): 76.9
//
compound: COc1ccc(-n2nc(C(=O)NCC(=O)Nc3nc4cc(OC)ccc4s3)c3ccccc3c2=O)cc1
growth (%): -4.82

====

Entries and their growth
test system: TK-10 renal; experiment: NCI-60 one-dose screen, 48 h (100 = growth as untreated, 0 = no growth, -100 = all killed); conditions: 10 µM unless noted
The panel holds about 83,000 compounds, 20% with a hit somewhere; the sample as a whole holds those more often.
reported_endpoint: growth (%)

molecule: N#Cc1nc(-c2cccc(Br)c2)cc(-c2ccc(Nc3nc(N4CCCCC4)nc(N4CCCCC4)n3)cc2)c1N
quantitative_readout: -87.8
//
molecule: CC(C)N=C1CCCC1C(=S)SSC(=S)C1CCCC1=NC(C)C (stereo unspecified)
quantitative_readout: 109
//
molecule: CCCNC(=S)N/N=C(\C)c1ccccn1
quantitative_readout: 47.4
//
molecule: O=C(Nc1ccccc1)C(CCCCN1C(=O)c2ccccc2C1=O)N1C(=O)c2ccccc2C1=O (stereo unspecified)
quantitative_readout: 105
//
molecule: Cc1cc(C#Cc2ccccc2)ccc1-n1c(/C=C/c2ccc(F)cc2)nc2ccccc2c1=O
quantitative_readout: 94.4
//
molecule: C=CCOc1c(Br)cc(Br)cc1Br
quantitative_readout: 102
//
molecule: Cc1cc(C)cc(Nc2cc(C)nc3nc(C(F)(F)F)nn23)c1
quantitative_readout: 46.1
//
molecule: C/C(=N\OC(=O)Nc1cccc(Cl)c1)c1ccccc1
quantitative_readout: 109
//
molecule: O=C(CS)OCC(COC(=O)CS)(COC(=O)CS)COC(=O)CS
quantitative_readout: 113
//
molecule: O=C(/C=C/c1ccccc1)C(Br)C(Br)c1ccccc1 (stereo unspecified)
quantitative_readout: -31.1
//
molecule: CC1CCN(Cc2ccc(NC(=O)c3cc4ccc5cccnc5c4[nH]3)cc2)CC1
quantitative_readout: 51.1

====

test system: OVCAR-3 ovarian; test: NCI-60 one-dose screen, 48 h (100 = growth as untreated, 0 = no growth, -100 = all killed); details: 10 µM unless noted
Compounds without any hit were thinned out: in the full panel of roughly 83,000, 20% have a hit.
Measured growth, listed per entry for reference.

molecule: O=C1C=CC(=O)N1c1cccc(N2C(=O)C=CC2=O)c1
unit_text: %
growth: 66.4
//
molecule: Nc1nc(N)c2cc(Sc3ccc(Cl)cc3)ccc2n1
unit_text: %
growth: 25.7
//
molecule: Cc1[nH]n(C(=O)c2ccncc2)c(=O)c1N=Nc1ccc(O)c(C(=O)O)c1
unit_text: %
growth: 105
//
molecule: Cc1nc2ccc(Nc3nc(Cl)nc(N4CCOCC4)n3)cc2n1Cc1ccccc1
unit_text: %
growth: 98.4
//
molecule: CC(C)N1CCN(c2ccncc2S(=O)(=O)N2CCN(C)CC2)CC1
unit_text: %
growth: 110
//
molecule: Oc1[nH]c2ccccc2c1/C=c1/ccc2c(c1)N=C(c1ccc(C(F)(F)F)cc1)N=2
unit_text: %
growth: 25.8
//
molecule: O=C(C=P(c1ccccc1)(c1ccccc1)c1ccccc1)CCl
unit_text: %
growth: -85.1
//
molecule: NC(N)=N/N=C/c1ccccc1
unit_text: %
growth: 99.5
//
molecule: COc1ccc2c(c1)CCCC21C(=O)Nc2c(Cl)cccc21 (stereo unspecified)
unit_text: %
growth: 76.3
//
molecule: CCN(CC)Cc1cc(Nc2ccnc3cc(Cl)ccc23)cc(-c2ccc(Cl)cc2)c1O
unit_text: %
growth: -44.1
//
molecule: O=c1cc(-c2ccc3c(c2)OCCO3)oc2cc(Cl)ccc12
unit_text: %
growth: -40.2
